Test system: SK-MEL-28
measurementNotes: NCI tumour cell line growth inhibition, 48 h
The source made the active and inactive calls. Rule as the data show it: active = GI50 up to about 1.1 µM and inactive = higher.
observable: GI50

What does the data say about its GI50? Entry: CCN(CC)CCOCC1CCCN2CCCCC12 (stereo not given)
> 100 µM (inactive)

Next entry: O=C(NC1(c2cc3ccccc3s2)CCCCC1)C1CCC1
66.8 µM (inactive)

COc1cc(/C=C2\CC3C4CC[C@H]5C[C@@H](O)CC[C@]5(C)C4CC[C@]3(C)\C2=N\O)cc(OC)c1OC (stereo not given in full) ?
14.7 µM (inactive)

Now this one: C=CCN(c1cc(OC)c2[nH]c(C(=O)OCC)c(C)c2c1[N+](=O)[O-])S(C)(=O)=O
43.2 µM (inactive)

Would you mind doing CCOC(=O)C(=O)/C(=C/NC(=S)Nc1ccc(Cl)c(Cl)c1)C(=O)OCC as well?
> 100 µM (inactive)

###

Tested on: SN12C
measurementNotes: NCI tumour cell line growth inhibition, 48 h
Active and inactive are the calls of the source. No stated cut-off is given here; in the data, active = GI50 up to about 1.1 µM and inactive = higher.
Just give me one of these, please: active, inactive

So what was the verdict on Cn1c2c(c3c(=O)[nH]ncc31)CCc1ccccc1-2 in this test?
inactive

And then CN1CCN(c2ccc3[nH]c(-c4ccc5[nH]c(CCCc6ccc(N(CCCl)CCCl)cc6)nc5c4)nc3c2)CC1 , what is it?
inactive

Now give it for CCSC1=CC(=O)c2nc3ccccc3c3ccnc1c23 too.
inactive

Entry CC1CC(N2CCOCC2)=Nc2ccccc2N1C (configuration not stated) please
inactive

Then CSc1ncnc2c1ncn2C1OC(CO)C(O)OC1O (configuration not stated) ?
active

Request: COC(=O)C(NC(=O)c1ccccc1)C(c1ccc(Cl)cc1)P(=O)(OC)OC (configuration not stated)
inactive

Now try COc1ccc(/N=N/C(=N\c2ccc(Cl)cc2)c2ccc(N(CCC#N)CCC#N)cc2)cc1 .
inactive

Field entry: O=S1(=O)C[C@@H](NCc2ccccc2)[C@H](NCc2ccccc2)C1
inactive

# iterate: CC(=O)O[C@H]1C[C@H]2[C@@H]([C@H](OC(C)=O)C[C@@H]3CC4(CC[C@@]32C)OOC2(CCCCC2)OO4)[C@@H]2CC[C@H]([C@H](C)CCC(N)=O)[C@@]12C
inactive

Then this compound: Oc1cc(Br)cc2cc(Cl)cnc12
inactive

And for Cc1ccc(NC(=O)CCc2nnc(N)o2)cc1 ?
inactive

Another compound to check: c1ccc(CSSSCc2ccccc2)cc1 [DIBENZYL TRISULFIDE]
active

Cool, now NC(=O)C(=Cc1ccc(CP(=O)(O)O)cc1)C(N)=O
inactive

Also CC12OC(=O)C(C#N)C1(C)C1C(=O)CCCC12 (configuration not stated) , if possible.
inactive

What would you report for CC1CN1P1(N2CC2C)=NP(N2CC2C)(N2CC2C)=NP(N2CC2C)(N2CC2C)=N1 (configuration not stated) ?
inactive

Also, CCCCCCCCCCCCCCCC(=O)OCC(O)C1OC(=O)C(O)=C1O (configuration not stated) please.
inactive

Next compound: [O-][S+]1c2ccccc2N=C(c2ccc3ccccc3c2)CC1c1ccccc1 (configuration not stated)
inactive

Please do the same for C=C(CN(C)C)C(=O)c1ccc(C)cc1C as well.
inactive

And then O=c1c2c3c(sc2nc2n1sc1nc4sc5c(c4c(=O)n12)CCCC5)CCCC3 , what is it?
inactive

Try this compound next: OC1CC(O)O[C@H](c2ccccc2)C1 (some centres not stated)
inactive

Further, for FC(F)(F)c1ccc2nc(NCc3ccccc3)c(-c3ccccc3)nc2c1 ?
inactive

Would you kindly repeat that for O=C(c1cc(Cl)ccc1Cl)N1CCN(c2cccc(Cl)c2)CC1 ?
inactive

###

Test system: Malme-3M
measurementNotes: NCI tumour cell line growth inhibition, 48 h
Calls of active or inactive are those of the source. Rule as the data show it: active = GI50 up to about 1.1 µM and inactive = higher.
A correct response names exactly one class from active, inactive

For C[N+](C)(C)CC1CCCC1=O (stereo not drawn) , what call appears in the results of this test?
active

Would you mind doing CC(=O)OI1NC(=O)c2ccccc21 as well?
inactive

Moving on to CCN(CC)CCn1c(=O)c2cccnc2n2c3c(=O)n(C)c(=O)n(C)c3nc12
inactive

Same read-out for Cn1c2c(c3c(=O)[nH]ncc31)CCc1ccccc1-2 ?
inactive

Okay, and CSc1cc(Cl)c(C)cc1S(=O)(=O)NC(=O)NNc1ccc(C)cc1 ?
inactive

How about Cc1ccc2nc(NC(=O)C(=O)CC(=O)c3cccc4ccccc34)sc2c1 ?
inactive

And then O=C(O)CP(=O)(O)O , what is it?
inactive

What about this compound? CC(=O)c1ccc2c(c1)N(CCCN1CCN(CCO)CC1)c1ccccc1C2
inactive

Quick one: CN(C)CCn1c(=O)c2ccc3c4c(nn3CCN(C)C)c3ccccc3n(c1=O)c24
active

Same lookup for Cn1c(=O)c2[nH]c(N/N=C3/SCC(=O)N3Cc3ccccc3)nc2n(C)c1=O , please.
inactive

Can you handle CC(C)CC1[C@@H](OCc2ccccc2)COS(=O)N1Cc1ccccc1 (stereo partly drawn) next?
inactive

Now this one: Cc1c(C(=O)CSc2nc3cc([N+](=O)[O-])ccc3[nH]2)c(=O)n(-c2ccccc2)n1C
inactive

# repeat for O=C(c1ccsc1)c1nccc2c1cnc1ccccc12
inactive

Follow-up entry: CCOc1cc(-c2nc3ccccn3c2/N=C/c2cc(Br)ccc2O)ccc1O
inactive

Moving on to the next compound: CCOC(=O)c1cccc([N+](=O)[O-])c1N
inactive

Follow-up item: O=C(C#Cc1ccccc1)Nc1ccccc1CC(c1c[nH]c2ccccc12)c1c[nH]c2ccccc12
inactive

Now consider O=C(CC1C(=O)Nc2ccccc2S1(=O)=O)Nc1cccc(Cl)c1 (stereo not drawn) .
inactive

// query: O=c1cc(-c2ccccc2)[nH]c2ccc(S)cc12
inactive

And then O=C1C2=Cc3ccccc3CCN2c2ccc([N+](=O)[O-])cc21 , what is it?
inactive

Try the compound COc1ccccc1C(=O)OCC1CCCN2CCCCC12 (stereo not drawn)
inactive

Same for COc1cc(/C=C2\CC3C4CC[C@H]5C[C@@H](O)CC[C@]5(C)C4CC[C@]3(C)\C2=N\O)cc(OC)c1OC (stereo partly drawn)
inactive

Next compound up: O=C1O[B-](c2ccccc2)(c2ccccc2)[NH2+]C1CS (stereo not drawn)
inactive

Please give the result for CC12OC(=O)C(C#N)C1(C)C1C(=O)CCCC12 (stereo not drawn) too.
inactive

###

Tested on: KM-20L2
measurementNotes: NCI tumour cell line growth inhibition, 48 h
Active and inactive are the calls of the source. No stated cut-off is given here; in the data, active = GI50 up to about 1.1 µM and inactive = higher.
Log the outcome using a class from active, inactive

Write down the call the test reported for this compound. Item: COc1cc(C2c3cc4c(cc3[C@@H](NCCN3CCCCC3)C3COC(=O)[C@H]23)OCO4)cc(OC)c1O (some centres not stated)
inactive

Would you kindly repeat that for CC(N)C(=O)c1ccc(O)cc1 (configuration not stated) ?
inactive

Now give it for COc1ccc(OC)c(NC(=O)C2=C(C)NC(C)=C(C(=O)Nc3cc(OC)ccc3OC)C2c2ccco2)c1 too.
inactive

Let us now turn to CCOc1ccc(/C=C/C(=O)c2sc(NNC(C)=O)nc2C)cc1
inactive

Continue with CCCOC(=O)C1CCC(=O)N1C(=O)C(C)Cl (configuration not stated)
inactive

Now this one: COc1cc2c(cc1OC)C(=O)C(C1=C(SC(=N)N)C(=O)c3cc(OC)c(OC)cc31)C2 (configuration not stated)
inactive

Cc1c(C(=O)c2ccccc2C(=O)O)c2ccccc2n1C ?
inactive

Now the same for CCOC(=O)C1=C(O)C(=O)c2cc(OC)ccc2C1=O
inactive

Same question for CC(C)N(C(=O)C12C3C4C1C1C4(C#N)C3C12C(=O)O)C(C)C (configuration not stated) please.
inactive

Moving on to the next compound: O=C(CC1C(=O)Nc2ccccc2S1(=O)=O)Nc1cccc(Cl)c1 (configuration not stated)
inactive

Moving on to the next compound: O=C1OC2C(O)COC2(O)C1(O)C(C[N+](=O)[O-])c1ccc(Cl)cc1 (configuration not stated)
inactive

What about O=C1c2cccc3cc([N+](=O)[O-])cc(c23)C(=O)N1CCCN1CCN(CCCN2C(=O)c3cccc4cc([N+](=O)[O-])cc(c34)C2=O)CC1 ?
active

Consider next the compound C#CCSc1nc(N)c2ncn(C3OC(COP(=O)(O)O)C(O)C3O)c2n1 (configuration not stated) in the same way.
inactive

What about this compound? Cc1ccc(/C=C(\C#N)c2ccccc2)cc1
inactive

Would you mind doing CCN(CC)c1ccc(C2N3CCCCC3[C@@H]3c4[nH]c5ccccc5c4CCN23)cc1 (some centres not stated) as well?
inactive

Would you mind doing COC(=O)CC(C(C(=O)OC)C(=O)OC)N1C(=O)OC(c2ccccc2)C1c1ccccc1 (configuration not stated) as well?
inactive

And CCCCN(CCCC)CC(C(=O)Nc1ccc([N+](=O)[O-])cc1[N+](=O)[O-])/C(C)=N\NC(=S)NN (configuration not stated) ?
inactive

Subsequent entry: C[N+]1(C)C/C(=C\c2ccc(O)cc2)C(=O)/C(=C/c2ccc(O)cc2)C1
inactive

Same question for O=C1/C(=C/c2ccc3c(c2)OCO3)CCC1CN1CCOCC1 (configuration not stated) please.
inactive

Same again, this time with CC(C)(C)OC(=O)N1N=NC2C3CC(=O)C(O3)C21 (configuration not stated)
inactive

Moving on to O=C1/C(=C/c2ccccc2)CN(C(=O)/C=C/c2ccccc2)C/C1=C\c1ccccc1
inactive

Moving on to the next compound: CCOC(=O)C1=C(O)C(=O)c2cc(C)ccc2C1=O
inactive

What do you get for CCCOP1(=O)C=CC(Cl)=C(C)C1 (configuration not stated) ?
inactive

// repeat for O=C(O)CNCc1c2ccccc2[n+]([O-])c2ccccc12 and report
inactive

Now consider NC(CCC(=O)NC(CSC(=O)N(O)c1ccccc1)C(=O)NCC(=O)O)C(=O)O (configuration not stated) and answer again.
inactive

Same question for O=c1ncc(F)cn1C1OC(CO)C(O)C1O (configuration not stated) please.
inactive

What do you get for O=C(O)/C=C/n1c2ccccc2c(=O)c2ccccc21 ?
inactive

All figures here come from ChEMBL document CHEMBL1201862.
